assayed-system: T1, 14-3-3θ (human, UniProt P27348 1-245)
T1 chain: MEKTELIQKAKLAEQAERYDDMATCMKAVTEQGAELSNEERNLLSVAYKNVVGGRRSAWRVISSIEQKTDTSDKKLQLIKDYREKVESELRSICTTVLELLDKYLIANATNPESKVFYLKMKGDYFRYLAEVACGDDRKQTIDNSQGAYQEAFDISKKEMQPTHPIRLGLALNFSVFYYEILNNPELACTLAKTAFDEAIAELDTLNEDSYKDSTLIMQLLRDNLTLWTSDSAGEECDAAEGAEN
test-summary: ITC
Where no end group is shown, it is not given here. [ ]: non-standard residue; d: D form. pT = C[C@@H](OP(=O)(O)O)[C@H](N)C(=O)O; pS = N[C@@H](COP(=O)(O)O)C(=O)O
Recorded pKd values for a group of binders are listed next.
Expect pKd as a plain number equal to -log10 of the molar concentration.

Task: Fill blank: measured pKd of the binder Ac-ATTENK[pT]LPRSSS-NH2 (SMILES CC(=O)N[C@@H](C)C(=O)N[C@H](C(=O)N[C@H](C(=O)N[C@@H](CCC(=O)O)C(=O)N[C@@H](CC(N)=O)C(=O)N[C@@H](CCCCN)C(=O)N[C@H](C(=O)N[C@@H](CC(C)C)C(=O)N1CCC[C@H]1C(=O)N[C@@H](CCCNC(=N)N)C(=O)N[C@@H](CO)C(=O)N[C@@H](CO)C(=O)N[C@@H](CO)C(N)=O)[C@@H](C)OP(=O)(O)O)[C@@H](C)O)[C@@H](C)O) [Site 3 peptide (pT360)] is ____.
Result: 4.81

Task: Can you handle Ac-TLPRSS[pS]MAAGLEK-NH2 (SMILES CSCC[C@H](NC(=O)[C@H](COP(=O)(O)O)NC(=O)[C@H](CO)NC(=O)[C@H](CO)NC(=O)[C@H](CCCNC(=N)N)NC(=O)[C@@H]1CCCN1C(=O)[C@H](CC(C)C)NC(=O)[C@@H](NC(C)=O)[C@@H](C)O)C(=O)N[C@@H](C)C(=O)N[C@@H](C)C(=O)NCC(=O)N[C@@H](CC(C)C)C(=O)N[C@@H](CCC(=O)O)C(=O)N[C@@H](CCCCN)C(N)=O) [Site 4 peptide (pS366)] next?
Result: 4.78

Task: Can you handle AQPKSL[pS]PPQSQSKLSDSYSN[pT]LPVRKS [Sites 1,2 peptide (pS325/pT340)] next?
Result: 4.79

Task: Can you handle Ac-LSDSYSN[pT]LPVRKS-NH2 (SMILES CC(=O)N[C@@H](CC(C)C)C(=O)N[C@@H](CO)C(=O)N[C@@H](CC(=O)O)C(=O)N[C@@H](CO)C(=O)N[C@@H](Cc1ccc(O)cc1)C(=O)N[C@@H](CO)C(=O)N[C@@H](CC(N)=O)C(=O)N[C@H](C(=O)N[C@@H](CC(C)C)C(=O)N1CCC[C@H]1C(=O)N[C@H](C(=O)N[C@@H](CCCNC(=N)N)C(=O)N[C@@H](CCCCN)C(=O)N[C@@H](CO)C(N)=O)C(C)C)[C@@H](C)OP(=O)(O)O) [Site 2 peptide (pT340)] next?
Result: 5.26

Source listed as paper PMC6351565.
